conditions: 405 K; 101.33 kPa; Liquid; Small sample (50 mg) DSC
± gives the expanded uncertainty stated by the source.
Quantity measured: molar entropy

Given OC[C@@H](O)C(O)[C@H](O)CO , state its recorded molar entropy.
386.13 ± 47 J/K/mol

Given OC[C@@H](O)[C@H](O)[C@@H](O)CO , state its recorded molar entropy.
395.99 ± 37 J/K/mol

Given OC[C@H](O)C(O)[C@@H](O)CO [L-(-)-arabitol] , state its recorded molar entropy.
383.87 ± 120 J/K/mol

Given OC[C@@H](O)[C@@H](O)CO , state its recorded molar entropy.
333.59 ± 60 J/K/mol

---

Hi there, I'd appreciate the recorded molar heat capacity at constant pressure for every entry that follows.
assay: molar heat capacity at constant pressure; conditions: 342.15 K; 101.33 kPa; Crystal; Small sample (50 mg) DSC
Give just the number in J/K/mol; leave the unit off.

Given OC[C@@H](O)C(O)[C@H](O)CO , state its recorded molar heat capacity at constant pressure.
243.41

Given OC[C@@H](O)[C@@H](O)CO , state its recorded molar heat capacity at constant pressure.
191.01

Given O[C@H]1[C@H](O)[C@@H](O)[C@H](O)[C@@H](O)[C@H]1O [cis-1,2,3,5-trans-4,6-cyclohexanehexol] , state its recorded molar heat capacity at constant pressure.
256.24

Given OC[C@@H](O)[C@@H](O)[C@H](O)[C@H](O)CO , state its recorded molar heat capacity at constant pressure.
269.07

Given OC[C@@H](O)[C@H](O)[C@@H](O)CO , state its recorded molar heat capacity at constant pressure.
246.78
